B1: Tryptophan synthase alpha chain, P0A877 (parent)
chain: MERYESLFAQLKERKEGAFVPFVTLGDPGIEQSLKIIDTLIEAGADALELGIPFSDPLADGPTIQNATLRAFAAGVTPAQCFEMLALIRQKHPTIPIGLLMYANLVFNKGIDEFYAQCEKVGVDSVLVADVPVEESAPFRQAALRHNVAPIFICPPNADDDLLRQIASYGRGYTYLLSRAGVTGAENRAALPLNHLVAKLKEYNAAPPLQGFGISAPDQVKAAIDAGAAGAISGSAIVKIIEQHINEPEKMLAALKVFVQPMKAATRS

- Variants of: B1
- experimental_context: Escherichia coli (strain K12); pH 7; 25 °C; GdnHCl; CD; Potassium phosphate 10 mM; reversible: yes; structure 1WQ5; whole UniProt chain shown
Exercise: for every item that follows, state its recorded unfolding free energy.
Number plus unit, in that order.

>>> reported_value("P207A")
"7 kcal/mol"
>>> reported_value("P28A")
"6.3 kcal/mol"
>>> reported_value("P132G")
"8.2 kcal/mol"

// switching to the query variant
Which measured unfolding free energy value corresponds to P28G ?
7.2 kcal/mol
